target: NE transporter (Rattus norvegicus); construct: from tissue; host or cells: brain membranes prepared by a cited method; assay: [^3 H]Nisoxetine binding to NE transporter; details: Table 2; nM ±; read-out: [^3 H]Nisoxetine Binding IC50
Sequence (Q63380 1-617): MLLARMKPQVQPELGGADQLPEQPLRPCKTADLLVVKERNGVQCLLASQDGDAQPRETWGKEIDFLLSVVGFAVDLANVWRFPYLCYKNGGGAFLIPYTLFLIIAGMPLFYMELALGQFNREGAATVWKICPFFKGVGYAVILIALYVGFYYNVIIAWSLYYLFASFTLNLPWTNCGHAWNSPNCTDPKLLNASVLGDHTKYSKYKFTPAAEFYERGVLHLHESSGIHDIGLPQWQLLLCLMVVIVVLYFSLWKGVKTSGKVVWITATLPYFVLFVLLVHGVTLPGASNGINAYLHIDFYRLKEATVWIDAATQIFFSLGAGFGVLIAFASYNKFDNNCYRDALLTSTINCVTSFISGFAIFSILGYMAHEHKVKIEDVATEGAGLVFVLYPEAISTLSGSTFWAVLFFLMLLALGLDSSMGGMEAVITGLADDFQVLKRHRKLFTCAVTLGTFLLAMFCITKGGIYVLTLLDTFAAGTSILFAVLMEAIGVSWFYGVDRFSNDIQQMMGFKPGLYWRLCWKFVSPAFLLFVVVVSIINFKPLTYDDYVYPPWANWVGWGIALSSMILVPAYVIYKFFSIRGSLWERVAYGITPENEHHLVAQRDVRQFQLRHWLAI
QUANTITY MEASURED: IC50 (nM)
Give bare numbers, in nM.

COMPOUND: CN1[C@H](Cc2ccccc2)C[C@H]2Cc3ccccc3[C@H]21 (relative stereo)
STUDY SYSTEM: NE transporter (Rattus norvegicus)
IC50 [nM]: 609

Let us examine a further case.
Prompt line: Look up IC50 for this compound: C[C@]12N[C@H](Cc3ccccc31)c1ccccc12 [(+)-MK801]
Response line: 6580

###

system: PCP site 2; type: binding, guinea pig; conditions: Table 2; nM ± SD
Consider the following compounds; for each one, report its IC50.
Answers are plain numbers, in nM.

Below: 2 compounds and their reported IC50.
COMPOUND: CN1[C@H](Cc2ccccc2)C[C@H]2Cc3ccccc3[C@H]21 (relative stereo) [RTI-4793-14]
DISPLAY UNIT: nM
IC50: 37.9
--
COMPOUND: c1ccc(C2(N3CCCCC3)CCCCC2)cc1 [PCP, phencyclidine]
DISPLAY UNIT: nM
IC50: 92.4

Here is another compound to look at.
Prompt line: Can you share its IC50? I mean this compound: CNC1CC(c2ccc(Cl)c(Cl)c2)c2ccccc21 (stereo not shown) [Indatraline]
Response line: 2530

###

target: PCP site 1; assay: [^3 H](+)-MK801 binding to PCP site 1; design: species or system guinea pig; conditions: Table 2; nM ± SD
QUANTITY MEASURED: IC50 (nM)
Answers are plain numbers, in nM.

COMPOUND: c1ccc(C2(N3CCCCC3)CCCCC2)cc1 [PCP, phencyclidine]
IC50 [nM]: 117

# ---- query compound ----
Prompt line: Can you share its IC50? I mean this compound: C[C@]12N[C@H](Cc3ccccc31)c1ccccc12 [(+)-MK801]
Response line: 4.58

###

Exercise: state measured pIC50 for each of the molecules provided.
Biological target: PCP site 1
Experiment: [^3 H](+)-MK801 binding to PCP site 1
Design: species or system guinea pig
Protocol: Large batches of frozen membranes were prepared with minor modifications of published procedures (Rothman, et al. (1989), supra). Twenty to thirty frozen guinea pig brains with cerebellum were thawed for 15 minutes and homogenized with a Polytron in ice-cold 5 mM Tris-HCl, pH 8.0 (10 ml/brain). The homogenate was centrifuged at 37,000×g for 10 minutes, and the pellet was washed by resuspension in the same volume of buffer followed by recentrifugation. […]
pIC50: −log10 of the molar value.

MOLECULE: CN1[C@H](Cc2ccccc2)C[C@H]2Cc3ccccc3[C@H]21 (relative stereo) [RTI-4793-14]
pIC50: < 4.44

Prompt line: Consider the molecule shown here: CNC1CC(c2ccc(Cl)c(Cl)c2)c2ccccc21 (centres unmarked) [Indatraline] What is its recorded pIC50?
Response line: < 4.00

###

target: PCP site 1; test: [^3 H](+)-MK801 binding to PCP site 1; parameters: species or system guinea pig; settings: Table 1; [^3 H]MK801
QUANTITY MEASURED: IC50

Worked cases, answers included:
COMPOUND: CC[C@H]1C[C@@H]2Cc3ccccc3[C@@H]2N1C (relative stereo)
STUDY SYSTEM: PCP site 1
IC50: > 20 µM
--
COMPOUND: c1ccc(C2(N3CCCCC3)CCCCC2)cc1
STUDY SYSTEM: PCP site 1
IC50: 0.117 µM
--
COMPOUND: C[C@]12N[C@H](Cc3ccccc31)c1ccccc12 [(+)-MK801]
STUDY SYSTEM: PCP site 1
IC50: 0.00458 µM

Please state, for each entry, its recorded IC50.
1. CN1[C@H](Cc2ccccc2)C[C@H]2Cc3ccccc3[C@H]21 (relative stereo)
2. CCOC(=O)[C@H]1C[C@@H]2Cc3ccccc3[C@@H]2N1C (relative stereo)
3. CN1CC[C@@H]2Cc3ccccc3[C@@H]21 (relative stereo)

Response line:
1: > 20 µM; 2: > 20 µM; 3: > 20 µM

Ref: patent US5747503A
